experiment: gradient 5% acetonitrile 3 min, to 50% in 2 min, to 85% in 15 min, held 3 min, 100 µL/min; conditions: column: Zorbax Extend-C18 2.1 x 50 mm; eluents: water / acetonitrile, 0.1% formic acid
Output MET for RP-LC retention time not less than 800 s; output NOT MET otherwise.

Cc1cccc(CN2CC=C(C(=O)N3CCN(c4cccc(C)c4)CC3)CC2)c1; NOT MET
Cc1[nH]c(C(=O)N2CCC(CC(=O)NCc3cccnc3)CC2)c(C)c1C(=O)OC(C)C; NOT MET
CC(C)CN1CCN(C(=O)CN2CCN(Cc3ccc(F)cc3)C2=O)CC1; NOT MET
O=C(NCCC1=CCCCC1)C1CCCN(c2ncc(-c3cccc(F)c3)cn2)C1 (centres undefined); MET
CC1(C(=O)NCc2ccc(F)cc2)CCN(C(=O)Nc2ccccc2C(F)(F)F)CC1; MET
Cc1ccc(-n2ncc3c(=O)n(Cc4nc(-c5ccccc5)no4)cnc32)cc1; MET
COC(=O)c1c(C)[nH]c(C(=O)N2CCCC(C(=O)N(C)Cc3ccco3)C2)c1C (centres undefined); NOT MET
COCCN1CCC2(CC1)CN(Cc1cc(OC)ccc1OC)Cc1ccccc1O2; NOT MET
CCCCN1CC(c2nc3ccccc3n2CCOc2ccccc2OC)CC1=O (centres undefined); NOT MET
COc1ccc(C)cc1NC(=O)N1c2ccccc2CC1c1nc(C2CC2)no1 (centres undefined); MET
COCCNC(=O)Cc1c(C)n(C)c2nc(-c3ccccc3)nn2c1=O; NOT MET
COc1cccc2cc(C(=O)NCCC(O)C(C)(C)C)oc12 (centres undefined); NOT MET
O=C(NCc1ccco1)C1CCN(c2ncccc2-c2nc(-c3ccccc3)no2)CC1; MET
O=C(c1cccn1Cc1noc(C2CC2)n1)N1CCc2ccccc21; MET
Cc1nc(C)c(C(=O)N2CCC(N3C(=O)C4(CCCC4)C3c3scnc3C)CC2)s1 (centres undefined); NOT MET
C=CCNC(=O)c1cnn(-c2ccc(-c3nc(C)no3)cn2)c1C; NOT MET
Cc1cc(=O)oc2cc(OCC(O)CN3CCN(c4ccccn4)CC3)ccc12 (centres undefined); NOT MET
Cc1ccc(-c2ncccc2CNS(=O)(=O)c2cccc(C)c2)cc1; NOT MET

----------
test: gradient 5% acetonitrile 3 min, to 50% in 2 min, to 85% in 15 min, held 3 min, 100 µL/min; settings: column: Zorbax Extend-C18 2.1 x 50 mm; eluents: water / acetonitrile, 0.1% formic acid
Property: RP-LC retention time; scope: individual compounds
readoutLabel: RP-LC retention time (s)

Cc1ccc(-c2nnc(-c3ccccc3)o2)cc1S(=O)(=O)N1CCC(C)CC1; 1210
CCOC(=O)CNC(=O)N1CCc2c([nH]c3ccc(OC)cc23)C1c1ccc(OC)cc1 (centres undefined); 886
CCc1nn(C)c(=O)c2cc(S(=O)(=O)NCc3ccccc3Cl)cn12; 893
C=C(CN(C)C)C(=O)c1ccccc1Cl; 594
Cc1nc(-c2cn(C(C)C)c3ncccc23)sc1C(=O)N1CCCC(C)C1 (centres undefined); 1050
CCC1CN2C=NC(N3CCN(C(=O)NCc4cccc(F)c4)CC3)=CC2=N1 (centres undefined); 615
COc1ccc(-n2c(=O)n(C)c(=O)c3cc(C(=O)NC4CCCCCC4)cnc32)cc1; 924
COc1ccc(CNC(=O)Cc2cn(C)c3ncccc23)c(OC)c1; 676
Cc1ccc(CNC(=O)C2(C)Oc3cccnc3N(C)C2=O)cc1 (centres undefined); 806
COc1cccc(N2CCN(CC(O)c3ccc4c(c3)OCO4)CC2)c1 (centres undefined); 640
CCOC(=O)c1ccc(NC(=O)COc2cc(C)nc(N3CCCC3)n2)cc1; 591
CCOc1ccc(-c2[nH]ncc2CNS(=O)(=O)c2ccc(NC(C)=O)cc2)cc1; 702
O=C(COc1ccccc1-c1nc(-c2ccccc2Cl)no1)NCc1ccco1; 1060
Cc1ccc(NC(=O)Nc2ccc3nncn3c2)c(C)c1; 747
COc1cccc(NC(=O)C2CCN(S(=O)(=O)c3cc(-c4noc(C5CC5)n4)cs3)CC2)c1; 1000
Cc1cc2n(n1)CCC(=O)N2CCCC(=O)NCCCOC(C)C; 618
COc1ccccc1NC(=O)Cn1c(=O)n(-c2ccc(F)cc2)c(=O)c2c1cc(C)n2C; 833
CC(C)NCc1ccc(-c2ccc(Cl)cc2)o1; 669
Cc1cc(=O)n(CC(=O)Nc2ccc(C(F)(F)F)cc2)c(N2CCOCC2)n1; 759
CC(=O)N1CCCc2cc(S(=O)(=O)N3CCC(C(=O)N4CCc5ccccc5C4)CC3)ccc21; 843
O=C(CN(C(=O)c1ccc(F)c(Cl)c1)C1CCCCC1)N1CCNCC1; 659
O=C(Cn1nc2c3cc(-c4ccccc4)nn3ccn2c1=O)NC1CCCC1; 796
CN(CCc1noc(COc2ccccc2)n1)C(=O)Nc1cccc(Br)c1; 964
CCN(CCNC(=O)CCc1cc2cc(OC)ccc2[nH]c1=O)Cc1ccccc1; 626
Cc1ccc(CNS(=O)(=O)c2ccc3c(c2)C(=O)N(C)c2ncccc2O3)cc1C; 986
CNC(=O)[C@@H]1CN(C(=O)c2noc(C)c2COC)C[C@H]1c1nc(C)no1; 619
CCOC(=O)c1ccc(NC(=O)CCc2c(-c3ccc(Cl)cc3)nc3ccccn23)cc1; 752
CCc1nc(-c2csc(S(=O)(=O)N3CCCC(C(=O)Nc4ccc(C)cc4)C3)c2)no1 (centres undefined); 901
CCOC(=O)c1c(C)n(-c2ccc(N(C)C)cc2)c2ccc(OCC(N)=O)cc12; 938
Cc1ccc(C)c(NC(=O)N2C[C@H](c3nc(-c4cccnc4)no3)[C@@H](C)C2)c1; 794
Cc1ccc(CN2N=C(C(=O)N3CCOCC3)S(=O)(=O)c3ccc(C)cc32)cc1; 907
CCc1cc(=O)n(CC(=O)Nc2ccc(F)cc2C)c(N)n1; 599
CCCCS(=O)(=O)N1CCC(C2CCN(C(=O)NC)CC2)C1 (centres undefined); 682
CCN1CCN(c2cc(C)c3cc(NC(=O)C(c4ccccc4)C4CCCC4)ccc3n2)CC1 (centres undefined); 646
CCNC(=O)C1CCCN(c2nc3ncn(CC(=O)NCc4ccc(Cl)cc4)c(=O)c3s2)C1 (centres undefined); 696
CC(C)NC(=O)C1Cn2cccc2C(=O)N1C (centres undefined); 651
COc1ccccc1NC(=O)N1CCC2(C1)C(=O)N(C)c1ccccc12 (centres undefined); 818
CCC(CC)C(=O)Nc1nc(-c2ccc3c(c2)N(C)C(=O)C(C)O3)cs1 (centres undefined); 992
CCc1noc(NC(C)=O)c1-c1ccc(C)c(S(=O)(=O)NCc2ccccc2Cl)c1; 914
